Test system: SK-MEL-28 tumor cells
Assay: Method C: Cell Growth Inhibition Assay (CellTiter-Glo), SK-MEL-28
Assay type: cell-based
Conditions: Homo sapiens, SK-MEL-28, 72 h, 3 days, 4-parameter fit
pIC50: −log10 of the molar value. Structures can show the parent of a compound that is named as a salt.
QUANTITY: pIC50

>>> readout_value("CCNc1nc(-c2cccc(NC(=O)c3c(F)cccc3F)c2)c(-c2ccnc(Nc3ccc(OCCN(C)C)c(Cl)c3)n2)s1 [Example 25]")
"6.00 to 7.00"
>>> readout_value("Cc1nc(-c2cccc(NC(=O)c3c(F)cccc3F)c2)c(-c2ccnc(Nc3ccc(OCCN(C)C)c(F)c3)n2)s1 [Example 105]")
"< 6.00"
>>> readout_value("COc1ccccc1C(=O)Nc1cccc(-c2nc(C)sc2-c2ccnc(Nc3ccc4c(c3)CN(C)CC4)n2)c1 [Example 130]")
"< 6.00"
>>> readout_value("Nc1nc(-c2cccc(C(=O)Nc3c(F)cccc3F)c2)c(-c2ccnc(Nc3cccc(CN4CCCC4)c3)n2)s1 [Example 77]")
"< 6.00"
>>> readout_value("Cc1nc(-c2cccc(NC(=O)c3c(F)cccc3F)c2)c(-c2ccnc(Nc3ccc(OCCN4CCCC4)c(Cl)c3)n2)s1 [Example 110]")
"< 6.00"
>>> readout_value("CN1CCc2ccc(Nc3nccc(-c4sc(N(C)C)nc4-c4cccc(NC(=O)c5c(F)cccc5F)c4)n3)cc2C1 [Example 38]")
"6.00 to 7.00"
>>> readout_value("CC(C)(C)S(=O)(=O)Cc1nc(-c2cccc(NC(=O)c3c(F)cccc3F)c2)c(-c2ccnc(Nc3ccc(OCCN4CCCC4)c(Cl)c3)n2)s1 [Example 119]")
"< 6.00"
>>> readout_value("COc1ccc(Nc2nccc(-c3sc(N)nc3-c3cccc(NC(=O)c4c(F)cccc4F)c3)n2)cc1N1CCN(C)CC1 [Example 11, trifluoroacetate]")
"> 7.00"
>>> readout_value("CN(C)CCOc1ccc(Nc2nccc(-c3sc(NCCCN4CCOCC4)nc3-c3cccc(NC(=O)c4c(F)cccc4F)c3)n2)cc1Cl [Example 4]")
"6.00 to 7.00"
>>> readout_value("NS(=O)(=O)CCc1cccc(Nc2nccc(-c3scnc3-c3cccc(NC(=O)c4c(F)cccc4F)c3)n2)c1 [Example 95]")
"< 6.00"
>>> readout_value("CS(=O)(=O)CCN1CCN(c2ccc(Nc3nccc(-c4scnc4-c4cccc(NC(=O)c5c(F)cccc5F)c4)n3)cc2F)CC1 [Example 80]")
"6.00 to 7.00"
>>> readout_value("Cc1nc(-c2cccc(NC(=O)c3c(F)cccc3F)c2)c(-c2ccnc(Nc3ccc(OC4CCNCC4)c(F)c3)n2)s1 [Example 107]")
"6.00 to 7.00"
>>> readout_value("Cc1cc(Nc2nccc(-c3sc(N(C)C)nc3-c3cccc(NC(=O)c4c(F)cccc4F)c3)n2)ccc1CC1CCNCC1 [Example 42]")
"< 6.00"
>>> readout_value("Cc1nc(-c2cccc(NC(=O)c3c(F)cccc3F)c2)c(-c2ccnc(Nc3ccc(OC4CCN(C(=O)OCc5ccccc5)CC4)c(F)c3)n2)s1 [Example 106]")
"< 6.00"
>>> readout_value("CCN(CC)CCOc1cccc(Nc2nccc(-c3scnc3-c3cccc(NC(=O)c4cc(F)ccc4F)c3)n2)c1 [Example 97]")
"< 6.00"
>>> readout_value("O=C(Nc1cccc(-c2nc(NCCCN3CCOCC3)sc2-c2ccnc(Nc3cccc(CN4CCCC4)c3)n2)c1)c1c(F)cccc1F [Example 28]")
"6.00 to 7.00"
>>> readout_value("CN(C)CCOc1cccc(Nc2nccc(-c3sc(N)nc3-c3cccc(NC(=O)c4c(F)cccc4F)c3)n2)c1 [Example 22]")
"6.00 to 7.00"
>>> readout_value("COc1ccc(Nc2nccc(-c3sc(N)nc3-c3cccc(NC(=O)c4c(F)cccc4F)c3)n2)cc1N1CCNCC1 [Example 18]")
"< 6.00"
>>> readout_value("Cc1nc(-c2cccc(NC(=O)c3cccc(Cl)c3)c2)c(-c2ccnc(Nc3ccc(OCCN(C)C)c(Cl)c3)n2)s1 [Example 136]")
"< 6.00"
>>> readout_value("Cc1nc(-c2cccc(NC(=O)c3cccnc3F)c2)c(-c2ccnc(Nc3ccc4c(c3)CN(C)CC4)n2)s1 [Example 137, trifluoroacetate]")
"< 6.00"
>>> readout_value("COc1ccc(Nc2nccc(-c3scnc3-c3cccc(NC(=O)c4c(F)cccc4F)c3)n2)cc1N1CCN(C)CC1 [Example 93]")
"6.00 to 7.00"
